Target: T1, human TGFβ3 (human, UniProt P10600 301-412)
T1 sequence: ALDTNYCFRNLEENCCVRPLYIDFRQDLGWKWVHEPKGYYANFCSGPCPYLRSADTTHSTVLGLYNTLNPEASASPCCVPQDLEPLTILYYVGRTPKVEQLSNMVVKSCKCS
Assay: Biacore, 3.33-90 nM, 1:1 global fit, vs wt GC1008
Procedure: In FIG. 6C, seventeen mutants were selected and scaled up to produce sufficient amount of purified protein for KD (equilibrium constant=kd/ka) analysis by Biacore. Multiple concentrations (90, 30, 10 and 3.33 nM) were used in duplicate on the 150 RU level TGFβ1, 2, and 3 immobilized surfaces. KD was calculated using global curve fitting analysis for a 1-to-1 Langmuir binding model. […]
Below: a set of entries, each annotated with reported KD mutant/KD wt.
ASSAY_READOUT: KD mutant/KD wt

[[record]]
binder = "I52L (antibody, V domains shown, GC1008 IgG4 variant) VH: QVQLVQSGAEVKKPGSSVKVSCKASGYTFSSNVISWVRQAPGQGLEWMGGVLPIVDIANYAQRFKGRVTITADESTSTTYMELSSLRSEDTAVYYCASTLGLVLDAMDYWGQGTLVTVSS VL: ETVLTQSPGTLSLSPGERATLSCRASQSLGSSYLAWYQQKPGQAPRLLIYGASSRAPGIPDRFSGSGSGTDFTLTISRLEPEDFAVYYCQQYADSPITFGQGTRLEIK"
value_reported = 2.6

[[record]]
binder = "S30W (antibody, V domains shown, GC1008 IgG4 variant) VH: QVQLVQSGAEVKKPGSSVKVSCKASGYTFWSNVISWVRQAPGQGLEWMGGVIPIVDIANYAQRFKGRVTITADESTSTTYMELSSLRSEDTAVYYCASTLGLVLDAMDYWGQGTLVTVSS VL: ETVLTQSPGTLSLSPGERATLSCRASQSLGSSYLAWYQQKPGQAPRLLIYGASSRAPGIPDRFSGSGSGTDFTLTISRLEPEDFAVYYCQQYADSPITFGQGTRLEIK"
value_reported = 0.3

[[record]]
binder = "E74W (antibody, V domains shown, GC1008 IgG4 variant) VH: QVQLVQSGAEVKKPGSSVKVSCKASGYTFSSNVISWVRQAPGQGLEWMGGVIPIVDIANYAQRFKGRVTITADWSTSTTYMELSSLRSEDTAVYYCASTLGLVLDAMDYWGQGTLVTVSS VL: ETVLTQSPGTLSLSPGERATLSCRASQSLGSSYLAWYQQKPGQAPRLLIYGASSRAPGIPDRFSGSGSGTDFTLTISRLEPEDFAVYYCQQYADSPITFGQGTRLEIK"
value_reported = 0.6

